- target.of.assay: Protease (Human immunodeficiency virus 1) (UniProt Q9YQ12)
- Sequence (Q9YQ12 as listed by the source): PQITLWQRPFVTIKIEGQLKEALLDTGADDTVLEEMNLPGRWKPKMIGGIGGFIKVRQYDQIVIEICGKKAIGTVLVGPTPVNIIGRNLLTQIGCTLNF
- protocol: Inhibition of HIV1 protease dimerization expressed in Escherichia coli Rosetta(DE3) using DABCYL-gamma-abu-Ser-Gln-Asn-Tyr-Pro-Ile-Val-Gln-EDANS as substrate at 28 uM by fluorimetric assay
measurement.name: inhibition (%)
Answers are plain numbers, in %.

Solved entries (count: 5):
INSERT INTO results (smiles_notation, unit_text, observed_result) VALUES
  ('CC(=O)NNC(=O)NNC(=O)CCNC(=O)CCCOc1ccc2ccc(OCCCC(=O)NCCC(=O)NNC(=O)NNC(C)=O)cc2c1', '%', 0),
  ('CC(C)[C@H](NC(=O)CCCOc1ccc2ccc(OCCCC(=O)O)cc2c1)C(=O)NNC(=O)[C@@H](NC(=O)OC(C)(C)C)C(C)C', '%', 0),
  ('CC(=O)NNC(=O)NNC(=O)[C@H](CCCCNC(=O)CCCOc1ccc2ccc(OCCCC(=O)NCCCC[C@H](NC(=O)OC(C)(C)C)C(=O)NNC(=O)NNC(C)=O)cc2c1)NC(=O)OC(C)(C)C', '%', 0),
  ('COC(=O)CCNC(=O)NNC(=O)NNC(=O)CCCOc1ccc2ccc(OCCCC(=O)NNC(=O)NNC(=O)NCCC(=O)OC)cc2c1', '%', 0),
  ('CNC(=O)NNC(=O)NNC(=O)CCCOc1ccc2ccc(OCCCC(=O)NNC(=O)NNC(=O)NC)cc2c1', '%', 13);

Could you now look at the following molecule, please?
For the molecule `CC(=O)NNC(=O)NNC(=O)[C@@H](NC(=O)CCCOc1ccc2ccc(OCCCC(=O)N[C@H](C(=O)NNC(=O)NNC(C)=O)C(C)C)cc2c1)C(C)C` , what inhibition is on record?
21

====

- protocol: Solubility of the compound
- Type: physicochemical
measurement.name: solubility
Please answer in the form of a number followed by its unit of measurement.

For the molecule `CC(C)[C@H](NC(=O)NNC(=O)NNC(=O)CCCOc1ccc2ccc(OCCCC(=O)NNC(=O)NNC(=O)N[C@H](C(N)=O)C(C)C)cc2c1)C(N)=O` , what solubility is on record?
300 µg/mL

====

- target.of.assay: Protease (Human immunodeficiency virus 1)
- protocol: Inhibition of HIV1 protease dimerization expressed in Escherichia coli Rosetta(DE3) at 5 uM by 1-Anilino-8-naphthalene sulfonate-based fluorescent probe binding assay
Activity calls are given as the source filed them. The rule behind the calls is not given here.
Choose the fitting class; nothing outside 1.0 for active, 0.0 for inactive is accepted.

Solved entries (count: 4):
INSERT INTO results (smiles_notation, label_class) VALUES
  ('CC(=O)N[C@H](C(=O)N[C@H](C(=O)N[C@@H](CC(C)C)[C@@H](O)CC(=O)N[C@@H](C)C(=O)N[C@@H](CC(C)C)[C@@H](O)CC(=O)O)C(C)C)C(C)C', 0.0),
  ('COC(=O)[C@@H](NC(=O)[C@H](CC(C)C)NC(=O)[C@@H](NC(=O)CCCOc1ccc2ccc(OCCCC(=O)N[C@H](C(=O)NNC(=O)[C@@H](NC(=O)OC(C)(C)C)C(C)C)C(C)C)cc2c1)C(C)C)C(C)C', 1.0),
  ('CC(C)(C)NC(=O)[C@@H]1C[C@@H]2CCCC[C@@H]2CN1C[C@@H](O)[C@H](Cc1ccccc1)NC(=O)[C@H](CC(N)=O)NC(=O)c1ccc2ccccc2n1', 0.0),
  ('COC(=O)[C@@H](NC(=O)[C@H](CC(C)C)NC(=O)[C@@H](NC(=O)CCCOc1ccc2ccc(OCCCC(=O)N[C@H](C(=O)N[C@@H](CC(C)C)C(=O)N[C@H](C(=O)OC)C(C)C)C(C)C)cc2c1)C(C)C)C(C)C', 1.0);

So what was the verdict on `CC(C)CN(C[C@@H](O)[C@H](Cc1ccccc1)NC(=O)O[C@H]1CCOC1)S(=O)(=O)c1ccc(N)cc1` in this test?
0.0

And `CC(C)[C@H](NC(=O)CCCOc1ccc2ccc(OCCCC(=O)N[C@H](C(=O)NNC(=O)[C@@H](NC(=O)OC(C)(C)C)C(C)C)C(C)C)cc2c1)C(=O)NNC(=O)[C@@H](NC(=O)OC(C)(C)C)C(C)C` ?
1.0

And `COC(=O)[C@@H](NC(=O)[C@H](CC(C)C)NC(=O)[C@@H](NC(=O)CCCOc1ccc2ccc(OCCCC(=O)NNC(=O)NNC(=O)N[C@H](C(N)=O)C(C)C)cc2c1)C(C)C)C(C)C` ?
1.0
